- System: His-LAMA4 as used in Example 6 (species not stated) (Homo sapiens (Human)) (UniProt Q16363)
- Run Description: ForteBio BLI, LAMA-His on anti-His sensor, antibody 8.33 nM
Measured koff, listed per entry.
Numeric answer only, unit s⁻¹ assumed.

Reported koff for humanized 19C12 antibody H2L6 (antibody, V domains shown) VH: QVQLQQSGAELVKPGASVKVSCKASGYAFSTYWMNWVRQAPGQGLEWIGQIYPGDGDTNYNGKFKGRVTITADKSTSTAYMELSSLRSEDTAVYFCARSDGYYDYWGQGTTVTVSS VL: DIVLTQSPASLAVSLGERATISCRASESVDSYGTSFMHWYQQKPGQPPKLLISLASSLESGVPARFSGSGSGTDFTLTISPVEAEDAATYYCQQNNEDPPTFGAGTKLEIKR was 0.000308
